Source: patent US20250163186A1

biological target: T1, CH2-4 constant domains of human IgE linked to a transmembrane protein, on 293 cells (human, UniProt P01854-1 104-428); experiment: flow cytometry, 293 cells expressing human IgE CH2-4
T1 construct: domain: CH2-4 constant domains; also called human IgE-expressing 293 cells
T1 sequence (P01854 other isoform, or with tags, fused parts or gaps): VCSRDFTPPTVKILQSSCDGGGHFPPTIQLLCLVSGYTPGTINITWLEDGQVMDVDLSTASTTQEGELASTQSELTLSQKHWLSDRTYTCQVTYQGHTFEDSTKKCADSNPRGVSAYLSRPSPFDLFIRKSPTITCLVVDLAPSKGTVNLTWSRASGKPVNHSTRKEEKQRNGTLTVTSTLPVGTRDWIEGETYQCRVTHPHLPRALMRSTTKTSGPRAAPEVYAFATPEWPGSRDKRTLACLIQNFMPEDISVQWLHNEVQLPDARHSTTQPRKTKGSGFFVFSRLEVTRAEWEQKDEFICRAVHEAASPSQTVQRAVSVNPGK
value.kind: pKd
One number for each entry, as −log10 of the molar value.

Any idea what its pKd is? The binder is hzB10v40 monomeric VHH-hIgG1-Fc fusion (Fc NNT) (Fc fusion, Humanized variants were tested as monomeric fusions with the non-dimerizing Fc NNT) EVQLLESGGGEVQPGGSLRLSCVASGLTFSSYNMGWLRQAPGKEREFVGLSGSSSTSTYYAESVKGRFTISRDNAKNTVYLQMTSLRAEDTAVYYCAARRLLSTYWSDRSWDFWGQGTLVTVEPGGPSVFLFPPKPKDTLMISRTPEVTCVVVDVSHEDPEVKFNWYVDGVEVHNAKTKPREEQYNSTYRVVSVLTVLHQDWLNGKEYKCKVSNKALPAPIEKTISKAKGQPREPQVYTLPPSRDELTKNQVNLTCLVKGFYPSDIAVEWESNGQPENNYKTTPPVLDSDGSFFLNSTLTVDKSRWQQGNVFSCSVMHEALHNHYTQKSLSLSPGK
8.58
